TESTED_SYSTEM: human PDHK1 (hPDHK1) (Homo sapiens (Human), UniProt Q15118)
Sequence (Q15118 29-436): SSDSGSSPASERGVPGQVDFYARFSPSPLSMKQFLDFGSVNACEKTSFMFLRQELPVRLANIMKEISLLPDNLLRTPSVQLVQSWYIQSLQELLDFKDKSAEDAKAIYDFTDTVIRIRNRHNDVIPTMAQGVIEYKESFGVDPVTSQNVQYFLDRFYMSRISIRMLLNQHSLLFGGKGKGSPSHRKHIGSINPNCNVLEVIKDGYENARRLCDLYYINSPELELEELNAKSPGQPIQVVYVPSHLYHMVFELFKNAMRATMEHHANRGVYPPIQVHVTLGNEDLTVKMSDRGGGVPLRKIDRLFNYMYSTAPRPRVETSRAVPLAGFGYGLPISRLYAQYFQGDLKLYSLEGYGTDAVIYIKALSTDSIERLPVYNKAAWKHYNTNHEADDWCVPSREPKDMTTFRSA
RUN_DESCRIPTION: Inhibitory action of PDHK1 activity in vitro (residual PDH activity after PDHK reaction)
CONDITION_NOTES: PDH/hPDHK1 complex solution, PDHK reaction at room temperature for 45 min, NADH absorbance at 340 nm; read-out: hPDK1 IC50
pIC50: −log10 of the molar value.
Property: pIC50; scope: individual molecules

Reference set (2 entries):
INPUT_SMILES: C[C@H]1CN(C(=O)c2cccc(-c3ccc(C#N)cc3)n2)Cc2cnc([C@@](C)(O)C(F)(F)F)n21
TESTED_SYSTEM: human PDHK1 (hPDHK1) (Homo sapiens (Human), UniProt Q15118)
pIC50: > 8.52
//
INPUT_SMILES: C[C@H]1CN(C(=O)c2ccc(C#N)c(-n3cc(Cl)cn3)c2)Cc2cnc([C@@](C)(O)C(F)(F)F)n21
TESTED_SYSTEM: human PDHK1 (hPDHK1) (Homo sapiens (Human), UniProt Q15118)
pIC50: > 8.52

Kindly review the next molecule as well.
query: Hello, please tell me recorded pIC50 for this one: `C[C@H]1CN(C(=O)c2cc(-c3ccc(F)cc3)ncc2F)Cc2cnc([C@@](C)(O)C(F)(F)F)n21`
result: > 8.52

---

TESTED_SYSTEM: UniProt:Q15119
RUN_DESCRIPTION: Inhibitory action of PDHK2 activity in vitro (residual PDH activity after PDHK reaction)
CONDITION_NOTES: PDH/hPDHK2 complex solution, PDHK reaction at room temperature for 45 min, NADH absorbance at 340 nm; read-out: kPDK2 IC50
Experimental: The inhibitory action of PDHK activity was assessed indirectly by measuring the residual PDH activity after PDHK reaction in the presence of a test compound. (Inhibitory Action of PDHK2 Activity) […] Then, 10 μL of substrates (5 mmol/L sodium pyruvate, 5 mmol/L Coenzyme A, 12 mmol/L NAD, 5 mmol/L thiamine pyrophosphate, diluted with assay buffer) were added. The mixture was incubated at room temperature for 90 min, and the residual PDH activity was measured. […]
READOUT: IC50 (nM)

(a) C[C@H]1CN(C(=O)c2ccc(N3CCN(C)CC3)cc2)Cc2cnc([C@@](C)(O)C(F)(F)F)n21
(b) C[C@H]1CN(C(=O)c2cc(-c3ccc(F)cc3)nn2C)Cc2cnc([C@@](C)(O)C(F)(F)F)n21
(c) C[C@H]1CN(C(=O)[C@@H]2c3ccccc3CCN2C)Cc2onc([C@@](C)(O)C(F)(F)F)c21
query: Please list the entries, largest IC50 first. Please respond with the labels ordered as the question requires.
result: a, b, c

---

TESTED_SYSTEM: human PDHK1 (hPDHK1) (Homo sapiens (Human), UniProt Q15118)
RUN_DESCRIPTION: Inhibitory action of PDHK1 activity in vitro (residual PDH activity after PDHK reaction)
CONDITION_NOTES: PDH/hPDHK1 complex solution, PDHK reaction at room temperature for 45 min, NADH absorbance at 340 nm; read-out: hPDK1 IC50
READOUT: IC50 (nM)

MOLECULE: COc1ccc(-c2cc(C(=O)N3Cc4cnc([C@@](C)(O)C(F)(F)F)n4[C@@H](C)C3)no2)cc1
UNIT_TAG: nM
IC50: 7
--
MOLECULE: C[C@H]1CN(C(=O)c2ccc(C#N)c(-n3cccn3)c2)Cc2cnc([C@@](C)(O)C(F)(F)F)n21
UNIT_TAG: nM
IC50: 6

(1) C[C@H]1CN(C(=O)C2CCC(n3cccn3)CC2)Cc2cnc([C@@](C)(O)C(F)(F)F)n21 (stereo partly shown)
(2) Cc1cc(C#N)ccc1-c1cc(C(=O)N2Cc3cnc([C@@](C)(O)C(F)(F)F)n3[C@@H](C)C2)n(C)n1
query: Hi! Which is lower in terms of IC50, the first one 1 or the second one 2 ? Write the label of whichever entry you select.
result: 2
(2: 6 nM, 1: 14 nM)

(1) C[C@H]1CN(C(=O)c2c(C#N)c(C3CC3)nn2C)Cc2onc([C@@](C)(O)C(F)(F)F)c21
(2) C[C@H]1CN(C(=O)C2(C)CN(C3CC(F)(F)C3)C2)Cc2cnc([C@@](C)(O)C(F)(F)F)n21
(3) C[C@H]1CN(C(=O)c2ccc(C3CC3)nc2)Cc2cnc([C@@](C)(O)C(F)(F)F)n21
query: Ascending by IC50, please. Please respond with the labels ordered as the question requires.
result: 1, 3, 2

(1) C[C@H]1CN(C(=O)c2ccc(=O)n(C3CC3)c2)Cc2cnc([C@@](C)(O)C(F)(F)F)n21
(2) C[C@H]1CN(C(=O)c2cc(-c3ccc(C#N)cn3)nn2C)Cc2cnc([C@@](C)(O)C(F)(F)F)n21
query: IC50 comparison. Which is larger, 1 or 2 ? Write the label of whichever entry you select.
result: 1

(a) C[C@H]1CN(C(=O)[C@H]2CCN(c3ccc(C#N)cn3)C2)Cc2cnc([C@@](C)(O)C(F)(F)F)n21
(b) C[C@H]1CN(C(=O)c2cc(C3CC3)n(C)n2)Cc2onc([C@@](C)(O)C(F)(F)F)c21
query: Hi! Which is lower in terms of IC50, the first one a or the second one b ? Write the label of whichever entry you select.
result: b

---

TESTED_SYSTEM: human PDHK1 (hPDHK1) (Homo sapiens (Human), UniProt Q15118)
RUN_DESCRIPTION: Inhibitory action of PDHK1 activity in vitro (residual PDH activity after PDHK reaction)
CONDITION_NOTES: PDH/hPDHK1 complex solution, PDHK reaction at room temperature for 45 min, NADH absorbance at 340 nm; read-out: hPDK1 IC50
READOUT: IC50 (nM)

(a) Cc1c(-c2ccc(C#N)cc2)nn(C)c1C(=O)N1Cc2cnc([C@@](C)(O)C(F)(F)F)n2[C@@H](C)C1
(b) C[C@H]1CN(C(=O)c2ccc(C3(O)CCCC3)cc2)Cc2cnc([C@@](C)(O)C(F)(F)F)n21
query: Hi! Which is lower in terms of IC50, the first one a or the second one b ? Write the label of whichever entry you select.
result: b

---

TESTED_SYSTEM: human PDHK2 (hPDHK2) (Homo sapiens (Human), UniProt Q15119)
RUN_DESCRIPTION: Inhibitory action of PDHK2 activity in vitro (residual PDH activity after PDHK reaction)
CONDITION_NOTES: PDH/hPDHK2 complex solution, PDHK reaction at room temperature for 45 min, NADH absorbance at 340 nm; read-out: kPDK2 IC50
Method: The inhibitory action of PDHK activity was assessed indirectly by measuring the residual PDH activity after PDHK reaction in the presence of a test compound. (Inhibitory Action of PDHK2 Activity) […] Then, 10 μL of substrates (5 mmol/L sodium pyruvate, 5 mmol/L Coenzyme A, 12 mmol/L NAD, 5 mmol/L thiamine pyrophosphate, diluted with assay buffer) were added. The mixture was incubated at room temperature for 90 min, and the residual PDH activity was measured. […]
READOUT: IC50 (nM)

(A) C[C@H]1CN(C(=O)c2cc(C3CC3)n(C)n2)Cc2onc([C@@](C)(O)C(F)(F)F)c21 [Example 113]
(B) C[C@H]1CN(C(=O)c2ccc(F)cc2C2CC2)Cc2cnc([C@@](C)(O)C(F)(F)F)n21 [Example 27]
query: Hi! Which is lower in terms of IC50, the first one A or the second one B ? Write the label of whichever entry you select.
result: A

(1) C[C@H]1CN(C(=O)c2cc(C#N)nn2C2CC2)Cc2onc([C@@](C)(O)C(F)(F)F)c21 [Example 114]
(2) C[C@H]1CN(C(=O)c2nn(C)c3cc(F)cc(F)c23)Cc2cnc([C@@](C)(O)C(F)(F)F)n21 [Example 7]
(3) C[C@H]1CN(C(=O)c2cc(-c3ccc(F)cc3)ncc2F)Cc2cnc([C@@](C)(O)C(F)(F)F)n21 [Example 86]
query: Ascending by IC50, please. Please respond with the labels ordered as the question requires.
result: 3, 1, 2
(3: 4 nM, 1: 7 nM, 2: 10 nM)

(A) C[C@H]1CN(C(=O)c2cc(-c3ccc(C#N)cn3)nn2C)Cc2cnc([C@@](C)(O)C(F)(F)F)n21 [Example 73]
(B) C[C@H]1CN(C(=O)c2ccc(F)c(-c3ccncc3C#N)c2)Cc2cnc([C@@](C)(O)C(F)(F)F)n21 [Example 84]
(C) C[C@H]1CN(C(=O)c2cc(-c3ccc(C#N)cc3)nn2C2CC2)Cc2cnc([C@@](C)(O)C(F)(F)F)n21 [Example 35]
query: Put the entries in order of IC50, starting with the largest number. Please respond with the labels ordered as the question requires.
result: B, A, C

(P) C[C@H]1CN(C(=O)c2cccc(-c3ccc(C#N)cc3)n2)Cc2cnc([C@@](C)(O)C(F)(F)F)n21 [Example 43]
(Q) C[C@H]1CN(C(=O)c2ccc(-c3ccc(C#N)cc3)cn2)Cc2cnc([C@@](C)(O)C(F)(F)F)n21 [Example 45]
query: IC50 comparison. Which is larger, P or Q ? Write the label of whichever entry you select.
result: Q
(Q: 8 nM, P: 5 nM)

(P) C[C@H]1CN(C(=O)c2ccc(F)c(-c3ccncc3F)c2)Cc2cnc([C@@](C)(O)C(F)(F)F)n21 [Example 82]
(Q) C[C@H]1CN(C(=O)c2ccc3nn(C)cc3c2)Cc2cnc([C@@](C)(O)C(F)(F)F)n21 [Example 12]
query: IC50 comparison. Which is larger, P or Q ? Write the label of whichever entry you select.
result: Q
